# Tested on: UACC-62 melanoma
# assay: NCI tumour cell line growth inhibition, 48 h
This listing pairs compounds with measured TGI.

Given item CC(C)(C)OC(=O)NCCc1ccc(N)cc1 , the value recorded as its TGI is > 100 µM

Given item O=C1C=CC(=O)c2cc3cc(CO)ccc3cc21 , the value recorded as its TGI is 31.8 µM

Given item COc1ccc(-c2cc(-c3ccccc3)nc(SCCCC(=O)NO)n2)cc1OC , the value recorded as its TGI is 3.11 µM

Given item Cc1ccc(S(=O)(=O)NC(=O)NC(C(=O)O)C(C)C)cc1 (stereo unspecified) , the value recorded as its TGI is > 100 µM

Where do these numbers come from? They come from PubChem BioAssay (NCI).
